Catalogue of Solubility readings, one per entry.
Assay: Solubility in PBS
Assay type: physicochemical
Settings: Solubility (uM)
The reply should contain only the number, in µM.

| MOLECULE | RESULT_VALUE |
| --- | --- |
| CC(=O)N1CCC[C@]12CC=CCCCC1(CCCC=CCCCCCC[C@@](C)(C(=O)N[C@@H](Cc3ccccc3)C(=O)N[C@@H](Cc3csc4ccccc34)C(=O)N[C@@H](Cc3c[nH]cn3)C(N)=O)NC(=O)[C@H](CCC(N)=O)NC(=O)[C@H](Cc3ccccc3)NC(=O)[C@H](C)NC(=O)[C@H](C)NC(=O)[C@H](CN(CC(=O)O)CC(F)(F)F)NC(=O)[C@H](CC(=O)O)NC1=O)NC(=O)[C@H](C)NC(=O)[C@H](CC(=O)O)NC2=O (some centres unmarked) | 48 |

Now for another entry.
Asked: Endpoint output: Solubility of CC(=O)N1CCC[C@]12CC=CCCCC1(CCCC=CCCCOC(=O)N3CC[C@@](C(=O)N[C@@H](Cc4ccsc4)C(=O)N[C@@H](Cc4csc5ccccc45)C(=O)N[C@@H](CCC(N)=O)C(N)=O)(C3)NC(=O)[C@H](Cc3ccccc3)NC(=O)[C@H](Cc3ccccc3)NC(=O)[C@H](C)NC(=O)[C@H](C)NC(=O)[C@H](CC(=O)O)NC(=O)[C@H](CC(=O)O)NC1=O)NC(=O)[C@H](CC(C)(C)C)NC(=O)[C@H](CC(=O)O)NC2=O (some centres unmarked) . Value?
Given back: 24
